Experiment: anti-His antibody binders, primary screen, artefact control for SMM control protein annotation, biochemical, small-molecule microarray, 635 nm fluorescence (AID 1128);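 further: score merges feature fluorescence with signal-to-noise for each printed compound spot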
Settings: anti-His Alexa647 antibody binding, higher = more signal
Rule: composite z-score of 0.3 or more gives Met; anything lower gives Not met.

See these solved cases before continuing.
CCCCCN1CC=CC23O[C@@H]4C=CCOC(=O)[C@@H]4[C@H]2C(=O)N(CCCCCCO)[C@@H]3C1=O (stereo partly drawn)
Met
C[C@@H]1CCC2C(=O)N(Cc3ccccc3)C[C@@H](O)CN2[C@H]1c1ccc(Br)cc1 (stereo partly drawn)
Met
COc1cccc([C@@H]2Oc3ccc(Br)cc3C(=O)[C@H]2O)c1
Not met
C=CC[C@@H]1C=C[C@H](ON=C(C)CCN2CCc3nc(CC)c(CC)cc3C2)[C@@H](CO)O1
Not met
C[C@@H](c1ccccc1)N1C(=O)[C@H]2[C@H]3[C@H](O)[C@H](O)CC(=NNC(=O)OCc4ccccc4)[C@H]3CC[C@H]2C1=O
Met

Form field: composite z-score at least 0.3? Entry: `O=C1[C@H]2[C@H]3[C@H](O)[C@H](O)CC(=NOCc4ccccc4)[C@@H]3CC[C@H]2C(=O)N1C1CCCCC1`
Not met

Form field: composite z-score at least 0.3? Entry: `CCOC(=O)NN=C1C[C@@H](O)[C@@H](O)[C@@H]2[C@@H]3C(=O)N(C4CCCCC4)C(=O)[C@@H]3CC[C@@H]12`
Met

Form field: composite z-score at least 0.3? Entry: CC(C)N1CC=CC23O[C@@H]4C=CCCOC(=O)C4[C@H]2C(=O)N(CCCCCCO)[C@@H]3C1=O (stereo partly drawn)
Not met

----------
# composite z-score annotations
Target: Dickkopf-related protein 1 (Homo sapiens) (UniProt O94907)
Sequence (O94907 whole entry, looked up): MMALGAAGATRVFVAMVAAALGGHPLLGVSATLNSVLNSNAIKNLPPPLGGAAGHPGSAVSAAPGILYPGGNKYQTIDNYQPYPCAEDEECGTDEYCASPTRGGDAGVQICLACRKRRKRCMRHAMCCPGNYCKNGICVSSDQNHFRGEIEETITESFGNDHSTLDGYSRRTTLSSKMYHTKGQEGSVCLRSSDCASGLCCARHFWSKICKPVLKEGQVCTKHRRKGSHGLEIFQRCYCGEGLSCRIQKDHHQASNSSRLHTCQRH
Assay: DKK1 binders on small-molecule microarrays, primary screen, biochemical, small-molecule microarray, 635 nm fluorescence scan (AID 1106);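 further: score merges emission near 667 nm with signal to noise over three replicate slides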
Settings: DKK1 binding, higher = more signal

COc1ccc(O[C@H]2C=C[C@@H](c3ccccc3)O[C@@H]2COC(=O)N2CCCCC2)cc1
0.0004
CCCCCN1CC=CC23O[C@@H]4C=CCOC(=O)[C@@H]4[C@H]2C(=O)N(C(CO)C(C)C)[C@@H]3C1=O (some centres undefined)
-0.426
CCCC[C@@H](O)C1=C(C)C[C@H]2C(=O)N(Cc3ccccc3)C(=O)[C@H]2[C@H]1CO
0.524

Give the value of composite z-score reported for the following: CN1C(=O)C2C=CC(C(O)c3ccc(I)cc3)N(NC(=O)OC(C)(C)C)C2C1=O (centres undefined)
-0.168

----------
Test: PSAC antagonists in infected red cells, primary screen, cell-based, P. falciparum Indochina, OD700, 2 h (AID 1155);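 further: lysis reports solute entry through the parasite surface anion channel PSAC; channel blockers reduce lysis of infected cells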
Conditions: P. falciparum Indochina infected erythrocytes, osmotic lysis OD700, called active from +8 up or from −8 down
Active and inactive are the calls of the source.
Thanks in advance; please answer with one of these: class 1 (active), class 0 (inactive)

See these solved cases before continuing.
COC(=O)CC=C[C@H](C)[C@@H](OCc1ccccc1Br)C(C)C
class 0
[N-]=[N+]=NCc1ccccc1C[C@]1(C(=O)NCc2ccccc2)N=C(c2ccc(OCCCO)cc2)O[C@H]1c1ccccc1N=[N+]=[N-]
class 1
CCOC(=O)C1=CCC(c2cc3ccccc3[nH]2)NC1 (stereo unspecified)
class 0

Status in this test for `CCN1C(=O)[C@H]2[C@H]3[C@H](O)[C@H](O)CC(=NO[C@@H]4O[C@H](CO)[C@@H](O)[C@H](O)[C@H]4O)[C@@H]3CC[C@H]2C1=O` ?
class 0

Status in this test for `CCOC(=O)CCN1C(=O)[C@H]2[C@H]3[C@H](O)C=CC(=O)[C@@H]3CC[C@H]2C1=O` ?
class 0

Status in this test for Cn1cccc1C(O)C1C=CC2C(=O)NC(=O)C2N1Nc1ccccn1 (stereo unspecified) ?
class 0

Status in this test for CCCCCN1CC=CC23O[C@@H]4C=CCOC(=O)[C@@H]4[C@H]2C(=O)N(C(CO)C(C)C)[C@@H]3C1=O (stereo partly specified) ?
class 0

Status in this test for `O=C1C2=CC[C@H]3C(=O)N(Cc4ccc5c(c4)OCO5)C(=O)[C@H]3[C@H]2[C@H](O)[C@@H]2O[C@H]12` ?
class 0

Status in this test for `C=CC[C@@H]1C=C[C@H](ON=C(C)CCN2CCc3nc(CC)c(CC)cc3C2)[C@@H](CO)O1` ?
class 0

Status in this test for COC(=O)[C@H](C)NC(=O)CCC1CC(OC(=O)NCCc2ccc(F)cc2)CC2(CCCC(COC(=O)NCC(c3ccccc3)c3ccccc3)O2)O1 (stereo partly specified) ?
class 0

Status in this test for `COc1cccc([C@@H]2Oc3ccc(Br)cc3C(=O)[C@H]2O)c1` ?
class 0

Status in this test for CCOC(=O)[C@H](Cc1ccccc1)NC(=O)CCC1CC(OC(=O)NCc2ccc3c(c2)OCO3)CC2(CCCC(COC(=O)NCc3cccc(C(F)(F)F)c3)O2)O1 (stereo partly specified) ?
class 0

Status in this test for `CC=CC1=C(CO)[C@H](O)[C@H]2O[C@H]2[C@H]1O` ?
class 0
